From: ChEMBL document CHEMBL4014311

- Test system: Hepatitis C virus
- experimental_protocol: Antiviral activity against HCV genotype 1b infected in human HuH7 cells after 3 days by luciferase reporter assay
- Format: functional, cell-based, Hepacivirus hominis
- condition_description: Hepatitis C virus, genotype 1b, Huh-7, 72 h; read-out: EC50
pEC50: −log10 of the molar value.
Binary classification by pEC50, with 8 as an inclusive lower bound for satisfied; all other cases are not satisfied.

>  <molecule>
CNC(=O)c1c(-c2ccc(F)cc2)oc2ccc(-c3cccc(C(=O)NC(C)c4ccccc4)c3)cc12 (centres undefined)

>  <target_under_test>
Hepatitis C virus

>  <classification>
not satisfied

$$$$

Could you verify whether the entry `CNC(=O)c1c(-c2ccc(F)cc2)oc2ccc(-c3cc(C(=O)NC4(c5cccnc5)CC4)ccc3C)cc12` shows pEC50 of no less than 8? satisfied

Could you verify whether the entry `CNC(=O)c1cccc(-c2ccc3oc(-c4ccc(F)cc4)c(C(=O)NC)c3c2)c1` shows pEC50 of no less than 8? not satisfied

Could you verify whether the entry `CNC(=O)c1c(-c2ccc(F)cc2)oc2ccc(-c3cc(C(=O)NC4(c5cccnn5)CC4)ccc3C)cc12` shows pEC50 of no less than 8? satisfied

Could you verify whether the entry `CNC(=O)c1c(-c2ccc(F)cc2)oc2ccc(OC(C)C)cc12` shows pEC50 of no less than 8? not satisfied

Could you verify whether the entry `CNC(=O)c1c(-c2ccc(F)cc2)oc2ccc(-c3cc(C(=O)NC4(c5ccccn5)CC4)ccc3C)cc12` shows pEC50 of no less than 8? satisfied
